- methodDescription: Solubility in water
- Assay type: physicochemical
metric: solubility

solubility lookup needed for C[n+]1cccc(C(N)=O)c1 [Compound 1, 1-Methylnicotinamide] , thanks. > 600 mg/mL

---

- methodDescription: Binding of pyridinium salts to sepharose immobilized heparin (spectrophotometric degree of binding)
- runConditions: water solution incubated 5 minutes with sepharose immobilized heparin 25 mg/mL
metric: Degree of binding, [%]

Degree of binding, [%] lookup needed for CCN(CC)C(=O)c1ccc[n+](C)c1 [Compound 3, 1-Methyl-N′,N′-diethylnicotin-amide] , thanks. 20-45%

Degree of binding, [%] lookup needed for CCC[n+]1cccc(C(N)=O)c1 [Compound 6, 1-Propylnicotinamide] , thanks. 20-45%

Degree of binding, [%] lookup needed for NC(=O)c1cccnc1 [Compound 8, Nicotinamide] , thanks. <20%

Degree of binding, [%] lookup needed for C[n+]1cccc(C(=O)[O-])c1 , thanks. <20%

Degree of binding, [%] lookup needed for C[n+]1cccc(C(=O)NCO)c1 [Compound 4, 1-Methyl-N′-(hydroxymethyl)-nicotinamide] , thanks. 20-45%

---

Reported values of Degree of binding, [%] for individual entries
- methodDescription: Binding of pyridinium salts to sepharose immobilized heparin (spectrophotometric degree of binding)
- runConditions: water solution incubated 5 minutes with sepharose immobilized heparin 25 mg/mL

C[n+]1cccc(C(N)=O)c1 [Compound 1, 1-Methylnicotinamide]
>45%
CNC(=O)c1ccc[n+](C)c1 [Compound 2, 1,N′-Dimethylnicotinamide]
20-45%

Here is another molecule to look at.
Degree of binding, [%] lookup needed for CC(=O)c1ccc[n+](C)c1 , thanks. 20-45%

Where do the numbers come from? From patent US20080112968A1.
